Data provenance: the supplement of paper PMC11451515

# Tested on: SEM cells
# ASSAY_PROCEDURE: AUC of viability dose-response curve (% viability x log10 dose units); higher = less sensitive
# CONDITION: RPMI 5 mM glucose + 10% FBS; 48 h
ENDPOINT: AUC of viability dose-response curve

{"COMPOUND": "Cc1cccc(Nc2nc(-c3ccncc3)cs2)c1", "REPORTED": 464}
{"COMPOUND": "Cc1cnc(NC(=O)Nc2cc(Br)c(C)cc2OC[C@@H]2CNCCO2)cn1", "REPORTED": 350}
{"COMPOUND": "CO[C@H]1/C=C\\C=C(\\C)C(=O)NC2=CC(=O)C(NCCN(C)C)=C(C[C@@H](C)C[C@H](OC)[C@H](O)[C@@H](C)/C=C(/C)[C@@H]1OC(N)=O)C2=O", "REPORTED": 274}
{"COMPOUND": "O=C(Nc1c(Cl)cncc1Cl)c1ccc(OC(F)F)c(OCC2CC2)c1", "REPORTED": 452}
{"COMPOUND": "CCC(C)(Oc1ccc(C2(c3ccc(OC(C)(CC)C(=O)O)cc3)CCCCC2)cc1)C(=O)O (stereo not drawn)", "REPORTED": 454}
{"COMPOUND": "CNc1nccc(-c2cccnc2Oc2cc(C(=O)Nc3cccc(C(F)(F)F)c3)ccc2C)n1", "REPORTED": 460}
{"COMPOUND": "COC(=O)[C@@H]1[C@H]2C[C@H]3c4[nH]c5ccccc5c4CCN3C[C@@H]2CC[C@@H]1O", "REPORTED": 441}
{"COMPOUND": "C\\C1=C(\\C=C(\\C#N)C(=O)N1)C2=CC=NC=C2", "REPORTED": 471}

* * *

# Tested on: SEM cells
# ASSAY_PROCEDURE: cell viability relative to DMSO control; higher = less cytotoxic
# CONDITION: RPMI 5 mM glucose + 10% dialyzed FBS; 48 h; 0.0632 µM
Known cell viability of a selection of compounds

{"TEST_SMILES": "C=C(C)[C@H]1Cc2c(ccc3c2O[C@@H]2COc4cc(OC)c(OC)cc4[C@@H]2C3=O)O1", "SUBJECT_OF_TEST": "SEM cells", "cell viability / %": 77}
{"TEST_SMILES": "COc1cc2nccc(Oc3ccc(NC(=O)NC4CC4)c(Cl)c3)c2cc1C(N)=O", "SUBJECT_OF_TEST": "SEM cells", "cell viability / %": 104}
{"TEST_SMILES": "Cc1cc2c(F)c(Oc3ncnn4cc(OC[C@@H](C)O)c(C)c34)ccc2[nH]1", "SUBJECT_OF_TEST": "SEM cells", "cell viability / %": 92.9}
